Documented cAMP Rel EC50 (receptor-expressing HEK-293 cells, 1% HSA) across a set of binders
Tested System: human glucagon receptor (human) (UniProt P47871)
Sequence (P47871 26-477): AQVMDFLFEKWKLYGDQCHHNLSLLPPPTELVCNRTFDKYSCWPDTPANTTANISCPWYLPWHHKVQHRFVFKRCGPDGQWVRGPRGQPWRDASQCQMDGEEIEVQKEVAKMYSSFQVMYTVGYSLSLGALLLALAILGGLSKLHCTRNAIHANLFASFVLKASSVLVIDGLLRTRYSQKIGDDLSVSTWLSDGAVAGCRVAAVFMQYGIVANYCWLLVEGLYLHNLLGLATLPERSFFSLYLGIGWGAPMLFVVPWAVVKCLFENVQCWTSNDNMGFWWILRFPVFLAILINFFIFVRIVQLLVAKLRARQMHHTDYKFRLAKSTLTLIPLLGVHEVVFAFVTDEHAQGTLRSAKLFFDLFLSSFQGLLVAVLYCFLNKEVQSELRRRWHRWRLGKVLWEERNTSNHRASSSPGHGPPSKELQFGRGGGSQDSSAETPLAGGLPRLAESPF
Assay Remarks: cell-based or functional assay
Assay Readout: cAMP Rel EC50 (receptor-expressing HEK-293 cells, 1% HSA) (nM)

Binder	Unit	Numeric Readout
YXQGTXTSDXSIXLDXKAQXXFIEXLIEGGPSSGEPPPEEG (synthetic construct; SITE 2: note = 2-Aminoisobutyric Acid; SITE 6: note = alpha-methyl-2-fluoro-L-phenylalanine; SITE 10: note = 3-(4-Pyridyl)-L-alanine; SITE 13: note = alpha-methyl-leucine; SITE 16: note = L-ornithine; SITE 17: note = Lysine is chemically modified through conjugation of the epsil) [Example 475]	nM	254
YXQGTXTSDYXILLDKKAQXAFIEYLEEGGPSSGAPPPE (non-natural residues; (AEEA)2-γGlu-C18 diacid on Lys; amide; synthetic construct; SITE 2: note = 2-Aminoisobutyric Acid; SITE 6: note = alpha-methyl-2-fluoro-L-phenylalanine; SITE 11: note = alpha-methyl-L-serine; SITE 17: note = Lysine is chemically modified through conjugation of the epsilon-amino group of the Lysine side chain with (2-[2-(2-Amino-ethoxy)-e)) [Example 468]	nM	195
YXQGTXTSDXXIXLDXKAQXXFIEYLIEGGPSSGAPEPSEG (synthetic construct; SITE 2: note = 2-Aminoisobutyric Acid; SITE 6: note = alpha-methyl-2-fluoro-L-phenylalanine; SITE 10: note = 3-(4-Pyridyl)-L-alanine; SITE 11: note = alpha-methyl-L-serine; SITE 13: note = alpha-methyl-leucine; SITE 16: note = L-ornithine; SITE 17: note = Lysine is chemically mo) [Example 492]	nM	128
YXQGTXTSDXXEXLDXKAQXXFIEXLIEGGPSSGEPPPE (synthetic construct; SITE 2: note = 2-Aminoisobutyric Acid; SITE 6: note = alpha-methyl-2-fluoro-L-phenylalanine; SITE 10: note = 3-(4-Pyridyl)-L-alanine; SITE 11: note = alpha-methyl-L-serine; SITE 13: note = alpha-methyl-leucine; SITE 16: note = L-ornithine; SITE 17: note = Lysine is chemically mo) [Example 447]	nM	1090
YXQGTXTSDYXELLDKKAQXAFIEYLEEGGPSSGAPPPE (Aib, αMeF(2F), αMeS; lipidated Lys; C-terminal amide; synthetic construct; SITE 2: note = 2-Aminoisobutyric Acid; SITE 6: note = alpha-methyl-2-fluoro-L-phenylalanine; SITE 11: note = alpha-methyl-L-serine; SITE 17: note = Lysine is chemically modified through conjugation of the epsilon-amino group of the Lysine side chain with (2-[2-(2-Amino-ethoxy)-e)) [Example 467]	nM	850
YXQGTXTSDXSIXLDXKAQXXFIEYLIEGGPSSGEPPPEEG (synthetic construct; SITE 2: note = 2-Aminoisobutyric Acid; SITE 6: note = alpha-methyl-2-fluoro-L-phenylalanine; SITE 10: note = 3-(4-Pyridyl)-L-alanine; SITE 13: note = alpha-methyl-leucine; SITE 16: note = L-ornithine; SITE 17: note = Lysine is chemically modified through conjugation of the epsil) [Example 477]	nM	716
